Cited source: the supplement of paper PMC11208160

# assay_comment: recombinant UMI read abundance after kanamycin selection (control-corrected) (log10(CPM+1)); higher = more efficient recombination; extreme values may be limits of the assay; sequences stand for … in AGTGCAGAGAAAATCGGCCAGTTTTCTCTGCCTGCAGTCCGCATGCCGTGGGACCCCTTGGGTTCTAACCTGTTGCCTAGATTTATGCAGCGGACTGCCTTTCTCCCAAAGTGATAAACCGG…AGGTTGGTTTCACT; site = the 11-nt donor
Class boundaries, taken from values of recombinant UMI read abundance (log10), are as follows: lower bin: < 0.03; middle bin: ≥ 0.03 and < 2; upper bin: ≥ 2

Which band does GTACGAGCATGGACCGGTTTTCCCGGTAATCCGTATTTGCA (site GTTCGAGCTTG) fall in?
middle bin

Which band does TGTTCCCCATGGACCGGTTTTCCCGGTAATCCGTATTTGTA (site GGTTCCCCTTA) fall in?
lower bin

Which band does ACGAAGACATGGACCGGTTTTCCCGGTAATCCGTATTTGCA (site ACGAAGACTTG) fall in?
upper bin

Which band does GAGTGCGCATGGACCGGTTTTCCCGGTAATCCGTATTTGTC (site GAGTGCGCTGA) fall in?
upper bin

Which band does GTTAGAACATGGACCGGTTTTCCCGGTAATCCGTATTTGGA (site GTTAGAACTCC) fall in?
middle bin

Next:
Which band does TATTCGGCATGGACCGGTTTTCCCGGTAATCCGTATTTGTG (site TATTCGGCTCA) fall in?
middle bin

Which band does TGAGCCTCATGGACCGGTTTTCCCGGTAATCCGTATTTGAC (site TGAGCCTCTGT) fall in?
upper bin

---

# assay_comment: recombinant UMI read abundance after kanamycin selection (control-corrected) (log10(CPM+1)); higher = more efficient recombination; extreme values may be limits of the assay; sequences stand for … in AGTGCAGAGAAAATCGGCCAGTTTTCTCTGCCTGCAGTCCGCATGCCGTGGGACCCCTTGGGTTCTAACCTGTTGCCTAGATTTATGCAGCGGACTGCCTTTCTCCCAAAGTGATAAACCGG…AGGTTGGTTTCACT; site = the 11-nt donor
reported_property: recombinant UMI read abundance (log10)
Answer with the value's number alone.

Assign recombinant UMI read abundance (log10) to the following record: GACAATCCATGGACCGGTTTTCCCGGTAATCCGTATTTGGT (site GACAACCCTAC)
0.00483

Next:
Assign recombinant UMI read abundance (log10) to the following record: ACTAGGACATGGACCGGTTTTCCCGGTAATCCGTATTTGAG (site ACTAGTACTCT)
0.226

Assign recombinant UMI read abundance (log10) to the following record: CTCTTGGCATGGACCGGTTTTCCCGGTAATCCGTATTTGGA (site CTCTTGGCTTC)
0.529

Assign recombinant UMI read abundance (log10) to the following record: GGAAATCCATGGACCGGTTTTCCCGGTAATCCGTATTTGGT (site GGAAATCCTAC)
0

Assign recombinant UMI read abundance (log10) to the following record: ACGAAGACATGGACCGGTTTTCCCGGTAATCCGTATTTGCA (site AGGAAGACTTG)
1.81

Assign recombinant UMI read abundance (log10) to the following record: ACAGAGGCATGGACCGGTTTTCCCGGTAATCCGTATTTGTG (site ACAGAGGCTCA)
1.14

Assign recombinant UMI read abundance (log10) to the following record: TAAAGTCCATGGACCGGTTTTCCCGGTAATCCGTATTTGGA (site TAAAGTCCTTC)
0.231

Assign recombinant UMI read abundance (log10) to the following record: CCGAATCCATGGACCGGTTTTCCCGGTAATCCGTATTTGTT (site CAGAATCCTAA)
0

Assign recombinant UMI read abundance (log10) to the following record: ACATTATCATGGACCGGTTTTCCCGGTAATCCGTATTTGCA (site ACACTATCTTG)
2.24

Assign recombinant UMI read abundance (log10) to the following record: CGGAAGCCATGGACCGGTTTTCCCGGTAATCCGTATTTGCA (site AGGAAGACTTG)
0

Assign recombinant UMI read abundance (log10) to the following record: CCGCTAGCATGGACCGGTTTTCCCGGTAATCCGTATTTGTG (site CCGGTAGCTCA)
0.0182

Assign recombinant UMI read abundance (log10) to the following record: ACCTGGGCATGGACCGGTTTTCCCGGTAATCCGTATTTGCA (site ACCTGGGCTTG)
0.909

---

recombinant barcode read abundance (log10) reference
# assay_comment: recombinant barcode read abundance after kanamycin selection (control-corrected) (log10(CPM+1)); higher = more efficient recombination; sequences stand for … in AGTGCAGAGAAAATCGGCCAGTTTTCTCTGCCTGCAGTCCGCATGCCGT…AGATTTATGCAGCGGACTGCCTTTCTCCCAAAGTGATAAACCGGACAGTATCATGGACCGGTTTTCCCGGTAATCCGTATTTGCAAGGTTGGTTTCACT; site = the 11-nt target
Answer with the value's number alone.

Assign recombinant barcode read abundance (log10) to the following record: TGGTATACTTGGGTTCTAACCTGTTGCCT (site TGGTATTCTAG)
0.122

Assign recombinant barcode read abundance (log10) to the following record: AGCCCTCCTTGGGTTCTAACCTGTTGCTA (site AGCCCTCCTAA)
0.0446

Assign recombinant barcode read abundance (log10) to the following record: CGCCTCGCTTGGGTTCTAACCTGTTGCCT (site CGCCTCGCTAG)
0.0366

Assign recombinant barcode read abundance (log10) to the following record: TACCGTCCTTGGGTTCTAACCTGTTGCGG (site TACCGTCCTCC)
1.8

Assign recombinant barcode read abundance (log10) to the following record: CAGTTTGCTTGGGTTCTAACCTGTTGCCT (site CAGTTTGCTAG)
0.512

Next:
Assign recombinant barcode read abundance (log10) to the following record: GAACCTACTTGGGTTCTAACCTGTTGCGG (site GAACCTACTCC)
1.77

Assign recombinant barcode read abundance (log10) to the following record: GTCGTGTCTTGGGTTCTAACCTGTTGCCG (site GTCCTGTCTCG)
0.0845

Assign recombinant barcode read abundance (log10) to the following record: GTGGATGCTTGGGTTCTAACCTGTTGCCT (site GGGGATTCTAG)
0.28

Assign recombinant barcode read abundance (log10) to the following record: CCATAGTCTTGGGTTCTAACCTGTTGCTT (site GCACAGTCTAA)
0.052

Assign recombinant barcode read abundance (log10) to the following record: AACTTCGCTTGGGTTCTAACCTGTTGCCT (site AACTTCGCTAG)
0.423

---

recombinant UMI read abundance (log10) reference
# assay_comment: recombinant UMI read abundance after kanamycin selection (control-corrected) (log10(CPM+1)); higher = more efficient recombination; extreme values may be limits of the assay; sequences stand for … in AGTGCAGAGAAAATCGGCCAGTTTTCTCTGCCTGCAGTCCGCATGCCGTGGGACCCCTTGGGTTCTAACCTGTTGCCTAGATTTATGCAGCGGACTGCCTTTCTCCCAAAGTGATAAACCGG…AGGTTGGTTTCACT; site = the 11-nt donor
Answer with the value's number alone.

Worked cases, answers included:
Assign recombinant UMI read abundance (log10) to the following record: AGTTCCACATGGACCGGTTTTCCCGGTAATCCGTATTTGGC (site AGTTCCACTGC)
1.42

Assign recombinant UMI read abundance (log10) to the following record: CCCCACACATGGACCGGTTTTCCCGGTAATCCGTATTTGCA (site CCCCACACTTT)
0.16

Assign recombinant UMI read abundance (log10) to the following record: CGATGATCATGGACCGGTTTTCCCGGTAATCCGTATTTGAA (site CGATGATCTTT)
2.86

Assign recombinant UMI read abundance (log10) to the following record: AGGAGTACATGGACCGGTTTTCCCGGTAATCCGTATTTGAC (site AGGAGTACTGT)
2.08

Next:
Assign recombinant UMI read abundance (log10) to the following record: AAAAGGCCATGGACCGGTTTTCCCGGTAATCCGTATTTGAC (site ACAAGGCCTGT)
0

---

# assay_comment: recombinant UMI read abundance after kanamycin selection (control-corrected) (log10(CPM+1)); higher = more efficient recombination; extreme values may be limits of the assay; sequences stand for … in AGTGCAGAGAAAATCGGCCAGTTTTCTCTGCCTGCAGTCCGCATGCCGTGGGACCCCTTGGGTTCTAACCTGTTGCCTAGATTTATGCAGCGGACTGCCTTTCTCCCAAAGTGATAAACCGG…AGGTTGGTTTCACT; site = the 11-nt donor
Lab note: anything with recombinant UMI read abundance (log10) at or over 0.2 counts as met; the rest go in not met.

Some solved cases for reference:
Test whether the sequence TCACGAGCATGGACCGGTTTTCCCGGTAATCCGTATTTGAA (site TCACGAGCTTT) records recombinant UMI read abundance (log10) of 0.2 or higher.
met

Test whether the sequence ATTCCCTCATGGACCGGTTTTCCCGGTAATCCGTATTTGAC (site ATTCCCTCTGT) records recombinant UMI read abundance (log10) of 0.2 or higher.
met

Test whether the sequence CGGACAACATGGACCGGTTTTCCCGGTAATCCGTATTTGCT (site CGGACACCTAG) records recombinant UMI read abundance (log10) of 0.2 or higher.
not met

Test whether the sequence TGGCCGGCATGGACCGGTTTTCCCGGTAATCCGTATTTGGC (site TGGCCGGCTGA) records recombinant UMI read abundance (log10) of 0.2 or higher.
not met

Test whether the sequence ATAGGGCCATGGACCGGTTTTCCCGGTAATCCGTATTTGAC (site ATAAGGCCTGT) records recombinant UMI read abundance (log10) of 0.2 or higher.
met

Test whether the sequence GGATAGACATGGACCGGTTTTCCCGGTAATCCGTATTTGTC (site GGATAGACTGC) records recombinant UMI read abundance (log10) of 0.2 or higher.
met

Test whether the sequence AATGTGTCATGGACCGGTTTTCCCGGTAATCCGTATTTGGC (site AATGTGTCTGG) records recombinant UMI read abundance (log10) of 0.2 or higher.
met

Test whether the sequence AACGATCCATGGACCGGTTTTCCCGGTAATCCGTATTTGTA (site AACGATCCTTA) records recombinant UMI read abundance (log10) of 0.2 or higher.
met

Test whether the sequence TAGCAATCATGGACCGGTTTTCCCGGTAATCCGTATTTGCG (site TAGCAATCTCG) records recombinant UMI read abundance (log10) of 0.2 or higher.
met

Test whether the sequence TTAGCTTCATGGACCGGTTTTCCCGGTAATCCGTATTTGTG (site TTAGCTTCTCA) records recombinant UMI read abundance (log10) of 0.2 or higher.
met

Next:
Test whether the sequence TATTCCCCATGGACCGGTTTTCCCGGTAATCCGTATTTGTA (site TCTTCCCCTTA) records recombinant UMI read abundance (log10) of 0.2 or higher.
met

Test whether the sequence CACTTCGCATGGACCGGTTTTCCCGGTAATCCGTATTTGGA (site CACTTAGCTTC) records recombinant UMI read abundance (log10) of 0.2 or higher.
not met

Test whether the sequence TAGAATACATGGACCGGTTTTCCCGGTAATCCGTATTTGTA (site TAGAATACTTC) records recombinant UMI read abundance (log10) of 0.2 or higher.
not met

Test whether the sequence ATGCAAGCATGGACCGGTTTTCCCGGTAATCCGTATTTGAG (site ATGCAAGCTCT) records recombinant UMI read abundance (log10) of 0.2 or higher.
met

Test whether the sequence CTGGTACCATGGACCGGTTTTCCCGGTAATCCGTATTTGCT (site CTGGTACCTAG) records recombinant UMI read abundance (log10) of 0.2 or higher.
not met

Test whether the sequence TACATGACATGGACCGGTTTTCCCGGTAATCCGTATTTGCG (site TACATGACTCG) records recombinant UMI read abundance (log10) of 0.2 or higher.
met

Test whether the sequence TTCCAAGCATGGACCGGTTTTCCCGGTAATCCGTATTTGAG (site TTCCAAGCTCT) records recombinant UMI read abundance (log10) of 0.2 or higher.
not met

Test whether the sequence AAAAGGCCATGGACCGGTTTTCCCGGTAATCCGTATTTGAC (site AGAAGGCCTGT) records recombinant UMI read abundance (log10) of 0.2 or higher.
not met
